# TARGET_ENTITY: SB100X-H19Y (synthetic Sleeping Beauty transposon, K14R;H19Y;K33A;R115H;R214D;K215A;E216V;N217Q;M243H;T314N)
# ASSAY_PROCEDURE: fluorescence lifetime; Full-length MST: 50 mM Tris pH 7.5, 5 mM MgCl2, 300 mM NaCl, 2% glycerol, 50 mM Arg-Glu, 1 mM TCEP, 0.1% Triton X-100, 0.1 mg/ml BSA, 30 nM Cy5-DNA, room temp
# CONDITIONS: protein: recombinant; tags: Ni-NTA purified; label: 5' Cy5 on forward strand (MST)
ATTRIBUTE_MEASURED: Kd (nM)
The reply should contain only the number, in nM.

INSERT INTO results (binder, attribute_measured, u, recorded_measurement) VALUES
  ('Li (dsDNA) DNA 1: TCCAGTGGGTCAGAAGTTTACATACACTAAGT DNA 2: ACTTAGTGTATGTAAACTTCTGACCCACTGGA', 'Kd', 'nM', 16.2);

Q: Given Lo (dsDNA) DNA 1: CAGTTGAAGTCGGAAGTTTACATACACTTAAG DNA 2: CTTAAGTGTATGTAAACTTCCGACTTCAACTG , state its recorded Kd.
Result: 20.6
